These measurements were taken from patent US20180185504A1.

Target: T1, human prolactin receptor (PRLR) (human, UniProt P16471 25-622)
T1 sequence: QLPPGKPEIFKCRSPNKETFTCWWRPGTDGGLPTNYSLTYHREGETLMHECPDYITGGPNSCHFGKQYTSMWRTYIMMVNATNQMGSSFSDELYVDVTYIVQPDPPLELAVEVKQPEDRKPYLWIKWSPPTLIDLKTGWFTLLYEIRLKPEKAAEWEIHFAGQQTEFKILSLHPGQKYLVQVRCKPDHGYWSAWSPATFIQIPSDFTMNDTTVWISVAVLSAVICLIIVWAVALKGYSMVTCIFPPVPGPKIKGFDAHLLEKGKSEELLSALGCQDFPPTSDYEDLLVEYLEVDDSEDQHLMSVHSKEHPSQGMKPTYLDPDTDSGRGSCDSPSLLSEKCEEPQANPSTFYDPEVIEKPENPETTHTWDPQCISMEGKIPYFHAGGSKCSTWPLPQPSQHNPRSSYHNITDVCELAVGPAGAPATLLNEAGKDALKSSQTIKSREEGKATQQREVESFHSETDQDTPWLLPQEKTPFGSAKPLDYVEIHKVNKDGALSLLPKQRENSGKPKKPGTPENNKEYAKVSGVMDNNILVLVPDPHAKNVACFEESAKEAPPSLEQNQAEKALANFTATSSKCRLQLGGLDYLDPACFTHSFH
Assay: cell-based or functional assay
reported.metric: IC50, cell viability, MCF7/PRLR cells (nM)

binder="H1H6959N2-DM1 (antibody, human IgG1, V domains shown, DM1 conjugated through SMCC linker; attachment residues not stated) VH: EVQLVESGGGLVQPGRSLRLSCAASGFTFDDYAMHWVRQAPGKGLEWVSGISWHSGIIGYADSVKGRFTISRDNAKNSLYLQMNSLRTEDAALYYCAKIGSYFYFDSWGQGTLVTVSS VL: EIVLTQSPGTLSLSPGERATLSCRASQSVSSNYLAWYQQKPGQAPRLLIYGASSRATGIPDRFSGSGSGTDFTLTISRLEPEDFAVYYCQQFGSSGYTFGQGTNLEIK" reported_measurement=0.47
binder="H1H6958N2-DM1 (antibody, human IgG1, V domains shown, DM1 conjugated through SMCC linker; attachment residues not stated) VH: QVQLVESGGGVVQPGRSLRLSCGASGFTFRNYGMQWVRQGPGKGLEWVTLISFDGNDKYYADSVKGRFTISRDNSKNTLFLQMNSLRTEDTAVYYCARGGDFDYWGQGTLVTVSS VL: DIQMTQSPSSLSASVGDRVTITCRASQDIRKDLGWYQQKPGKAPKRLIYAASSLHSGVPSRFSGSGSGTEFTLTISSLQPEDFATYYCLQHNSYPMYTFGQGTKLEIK" reported_measurement=0.19
